- PROTOCOL NOTES: Oral bioavailability in Wistar rat at 5 mg/kg measured up to 24 hrs post dose by HPLC-MS/MS analysis
- Type: ADME, organism-based
- ASSAY CONDITIONS: in vivo
VALUE TYPE: bioavailability (%)
Answers are plain numbers, in %.

For record CC1CC[C@@H]2C(C)(C)[C@H](O)CC[C@@]2(C)[C@@H]1/C=C/c1ccc(-c2cccc(F)c2)cn1 (single isomer, unassigned) the listed bioavailability is 52.5

* * *

Provide the reported IC50 of each item.
- EXPERIMENTAL TARGET: Proteinase-activated receptor 1 (Homo sapiens)
- Sequence (P25116 whole entry): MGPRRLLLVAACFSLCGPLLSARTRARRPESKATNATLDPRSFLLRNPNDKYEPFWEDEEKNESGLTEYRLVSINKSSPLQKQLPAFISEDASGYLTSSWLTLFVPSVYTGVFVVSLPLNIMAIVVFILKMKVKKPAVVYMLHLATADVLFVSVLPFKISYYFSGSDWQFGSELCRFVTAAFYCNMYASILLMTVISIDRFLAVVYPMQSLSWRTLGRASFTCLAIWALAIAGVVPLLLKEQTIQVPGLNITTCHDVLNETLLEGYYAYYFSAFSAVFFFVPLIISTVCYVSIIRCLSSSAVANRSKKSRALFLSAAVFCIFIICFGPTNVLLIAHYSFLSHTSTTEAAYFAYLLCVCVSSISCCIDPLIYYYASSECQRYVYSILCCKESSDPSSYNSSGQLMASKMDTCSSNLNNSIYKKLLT
- PROTOCOL NOTES: Antagonist activity at human PAR1 expressed in HEK293 cells co-expressing Galpha15 assessed as inhibition of haTRAP-induced calcium mobilization preincubated for 15 mins followed by haTRAP addition by calcium-4 dye based FLIPR assay
- Assay type: functional, cell-based
One number for each entry, in µM.

Example results:
SMILES NOTATION	SCALE UNIT	IC50
COC[C@@]1(C)[C@H]2CC[C@@]3(CO3)[C@@H](/C=C/c3ccc(-c4cccc(F)c4)cn3)[C@]2(C)CC[C@H]1O	µM	8.1
CO[C@@H]1CC[C@]2(C)[C@H](CC[C@@]3(CO3)[C@H]2/C=C/c2ccc(-c3cccc(F)c3)cn2)[C@]1(C)CO	µM	14
C[C@@]1(/C=C/c2ccc(-c3cccc(F)c3)cn2)[C@@H](OC(N)=O)CC[C@@]2(C)[C@@H]3C(=O)OC[C@H]3CC[C@H]12	µM	20

Let us examine a further case.
For record C[C@]1(CO)[C@H]2CC[C@@]3(CO3)[C@@H](/C=C/c3ccc(-c4cccc(C(F)(F)F)c4)cn3)[C@]2(C)CC[C@H]1O the listed IC50 is 9.5
